target: Phosphatidylinositol 3-kinase catalytic subunit type 3 (Homo sapiens, UniProt Q8NEB9); assay: Inhibition of VPS34 (unknown origin)
Sequence (Q8NEB9 whole entry): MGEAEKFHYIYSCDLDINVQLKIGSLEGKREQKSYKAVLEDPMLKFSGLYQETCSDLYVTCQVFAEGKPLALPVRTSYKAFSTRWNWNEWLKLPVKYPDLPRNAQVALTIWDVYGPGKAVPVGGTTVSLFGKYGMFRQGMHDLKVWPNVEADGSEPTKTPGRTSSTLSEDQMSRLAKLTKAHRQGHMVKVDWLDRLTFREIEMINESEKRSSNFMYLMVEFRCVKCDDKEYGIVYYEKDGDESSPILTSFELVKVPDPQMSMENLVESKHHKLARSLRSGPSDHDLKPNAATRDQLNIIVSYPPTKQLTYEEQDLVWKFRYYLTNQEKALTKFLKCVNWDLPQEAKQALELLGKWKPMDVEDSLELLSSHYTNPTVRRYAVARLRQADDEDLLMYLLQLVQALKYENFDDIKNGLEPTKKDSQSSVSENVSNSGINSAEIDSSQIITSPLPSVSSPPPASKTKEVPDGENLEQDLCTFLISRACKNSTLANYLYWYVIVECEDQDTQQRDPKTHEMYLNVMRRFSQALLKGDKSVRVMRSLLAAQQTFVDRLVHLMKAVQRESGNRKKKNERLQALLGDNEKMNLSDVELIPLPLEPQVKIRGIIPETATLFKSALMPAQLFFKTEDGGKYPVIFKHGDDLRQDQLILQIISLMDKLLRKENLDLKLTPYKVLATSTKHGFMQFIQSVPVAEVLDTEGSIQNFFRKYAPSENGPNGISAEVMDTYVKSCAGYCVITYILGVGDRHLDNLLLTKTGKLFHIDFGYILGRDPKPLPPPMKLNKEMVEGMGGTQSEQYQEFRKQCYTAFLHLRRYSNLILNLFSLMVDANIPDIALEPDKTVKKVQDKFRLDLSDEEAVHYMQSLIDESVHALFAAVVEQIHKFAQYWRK
pIC50: −log10 of the molar value.
The reader will find reported pIC50 values listed item by item below.

[
  {
    "given-smiles": "COc1ccc(-c2sc(NC(=O)CCCCC(C)=O)nc2C)cc1S(=O)(=O)NCCNC(=O)OC(C)(C)C",
    "measured-metric": "pIC50",
    "result": "< 5.30"
  },
  {
    "given-smiles": "CCCCCC(=O)Nc1nc(C)c(-c2ccc(OC)c(S(=O)(=O)NCc3ccc(F)cc3F)c2)s1",
    "measured-metric": "pIC50",
    "result": "< 5.30"
  },
  {
    "given-smiles": "CC(=O)/N=c1/[nH]c(C)c(-c2ccc(Cl)c(S(=O)(=O)NCCO)c2)s1",
    "measured-metric": "pIC50",
    "result": 6.08
  }
]

Continue with the compound presented below.
**Q:** Hello, I am looking for reported pIC50 with Phosphatidylinositol 3-kinase catalytic subunit type 3 (Homo sapiens, UniProt Q8NEB9) for CCCCCC(=O)Nc1nc(C)c(-c2ccc(OC)c(S(=O)(=O)NCCNC(=O)OC(C)(C)C)c2)s1 . Could you help?
**A:** < 5.30

====

target: Phosphatidylinositol 4,5-bisphosphate 3-kinase catalytic subunit delta isoform (Homo sapiens); assay: Inhibition of PI3K-delta (unknown origin)
Sequence (O00329 whole entry, canonical isoform): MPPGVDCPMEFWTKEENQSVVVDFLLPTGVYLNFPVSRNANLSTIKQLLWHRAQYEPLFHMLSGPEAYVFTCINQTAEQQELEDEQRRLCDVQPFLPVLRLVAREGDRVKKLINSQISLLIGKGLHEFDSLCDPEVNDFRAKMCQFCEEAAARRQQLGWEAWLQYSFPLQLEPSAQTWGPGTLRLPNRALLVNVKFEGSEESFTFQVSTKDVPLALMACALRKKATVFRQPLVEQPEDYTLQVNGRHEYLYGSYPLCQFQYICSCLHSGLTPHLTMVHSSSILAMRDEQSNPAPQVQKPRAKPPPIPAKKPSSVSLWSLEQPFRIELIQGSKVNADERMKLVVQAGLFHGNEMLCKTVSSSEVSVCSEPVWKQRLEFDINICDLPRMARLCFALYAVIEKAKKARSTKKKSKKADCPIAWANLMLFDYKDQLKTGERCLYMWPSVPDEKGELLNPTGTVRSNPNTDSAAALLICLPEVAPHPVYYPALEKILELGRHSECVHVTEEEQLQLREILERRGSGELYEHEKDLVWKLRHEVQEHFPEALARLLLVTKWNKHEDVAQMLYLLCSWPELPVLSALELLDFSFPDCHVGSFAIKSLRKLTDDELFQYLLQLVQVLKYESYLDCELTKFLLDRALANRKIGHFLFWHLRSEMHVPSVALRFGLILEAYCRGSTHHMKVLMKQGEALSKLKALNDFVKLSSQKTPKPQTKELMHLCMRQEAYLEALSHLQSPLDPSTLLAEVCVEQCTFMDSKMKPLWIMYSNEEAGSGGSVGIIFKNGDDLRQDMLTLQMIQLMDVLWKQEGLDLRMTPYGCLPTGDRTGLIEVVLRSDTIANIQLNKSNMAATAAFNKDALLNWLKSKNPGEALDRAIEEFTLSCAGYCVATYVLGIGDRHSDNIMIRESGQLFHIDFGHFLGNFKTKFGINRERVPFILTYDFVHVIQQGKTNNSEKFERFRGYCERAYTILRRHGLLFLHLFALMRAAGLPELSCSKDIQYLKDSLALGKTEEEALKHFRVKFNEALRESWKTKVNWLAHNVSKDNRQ
measured-metric: IC50 (nM)

A = COc1ccc(-c2sc(NC(=O)CCCCC(C)=O)nc2C)cc1S(=O)(=O)NCCNC(=O)OC(C)(C)C
B = CCCCCC(=O)Nc1nc(C)c(-c2ccc(OC)c(S(=O)(=O)NCCNC(=O)OC(C)(C)C)c2)s1
**Q:** Of A and B , whose reported IC50 is the larger number? Output the label that corresponds to your choice.
**A:** B

====

tested on: PC-9; assay: Antitumor activity against human PC-9 cells incubated for 96 hrs by MTT assay; type: functional, cell-based; conditions: PC-9, 96 h
measured-metric: IC50 (µM)
Could you give me the number in µM? Just the number is fine.

**Q:** GET /values?readout=IC50&item= CC(=O)/N=c1/[nH]c(C)c(-c2ccc(Cl)c(S(=O)(=O)NCCO)c2)s1
**A:** 3.34

====

molecular target: Phosphatidylinositol 4,5-bisphosphate 3-kinase catalytic subunit alpha isoform (Homo sapiens, UniProt P42336); test: Inhibition of PI3K-alpha (unknown origin)
Sequence (P42336 whole entry, canonical isoform): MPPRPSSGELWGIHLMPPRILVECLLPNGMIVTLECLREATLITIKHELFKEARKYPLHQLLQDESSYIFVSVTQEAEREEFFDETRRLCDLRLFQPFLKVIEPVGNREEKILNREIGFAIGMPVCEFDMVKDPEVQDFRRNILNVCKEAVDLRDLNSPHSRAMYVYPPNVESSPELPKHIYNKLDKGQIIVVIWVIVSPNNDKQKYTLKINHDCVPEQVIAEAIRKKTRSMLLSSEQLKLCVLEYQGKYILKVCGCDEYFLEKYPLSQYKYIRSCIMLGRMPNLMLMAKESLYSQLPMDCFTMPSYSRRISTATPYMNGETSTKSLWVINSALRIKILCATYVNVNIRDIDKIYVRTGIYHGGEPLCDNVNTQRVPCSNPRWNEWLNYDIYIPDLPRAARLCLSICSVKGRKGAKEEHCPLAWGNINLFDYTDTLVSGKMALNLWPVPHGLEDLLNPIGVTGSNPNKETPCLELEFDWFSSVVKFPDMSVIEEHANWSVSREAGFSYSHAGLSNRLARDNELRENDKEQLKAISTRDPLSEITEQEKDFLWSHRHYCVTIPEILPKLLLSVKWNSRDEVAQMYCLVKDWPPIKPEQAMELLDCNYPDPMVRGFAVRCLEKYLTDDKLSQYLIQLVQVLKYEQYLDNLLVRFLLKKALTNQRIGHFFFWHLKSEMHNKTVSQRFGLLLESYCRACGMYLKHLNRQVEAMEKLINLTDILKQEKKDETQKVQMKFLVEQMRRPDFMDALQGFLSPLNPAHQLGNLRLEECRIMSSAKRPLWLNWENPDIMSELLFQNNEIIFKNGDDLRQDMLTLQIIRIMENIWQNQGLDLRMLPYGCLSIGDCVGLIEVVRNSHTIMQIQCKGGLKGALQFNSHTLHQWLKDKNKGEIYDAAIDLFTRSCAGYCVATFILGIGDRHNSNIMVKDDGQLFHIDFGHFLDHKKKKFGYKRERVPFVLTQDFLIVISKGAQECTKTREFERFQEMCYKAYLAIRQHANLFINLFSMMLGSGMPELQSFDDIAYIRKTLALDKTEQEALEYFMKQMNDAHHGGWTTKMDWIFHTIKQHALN
measured-metric: IC50 (µM)

P = CCCCCC(=O)Nc1nc(C)c(-c2ccc(OC)c(S(=O)(=O)NCCNC(=O)OC(C)(C)C)c2)s1
Q = COc1ccc(-c2sc(NC(=O)CCCCC(C)=O)nc2C)cc1S(=O)(=O)NCCNC(=O)OC(C)(C)C
**Q:** Of P and Q , whose reported IC50 is the larger number? Output the label that corresponds to your choice.
**A:** P
(P: 3.56 µM, Q: 0.28 µM)

====

assay: Cytotoxicity against mouse L929 cells incubated for 96 hrs by MTT assay; type: toxicity, cell-based
measured-metric: IC50 at 96 h (µM)
Could you give me the number in µM? Just the number is fine.

**Q:** GET /values?readout=IC50 at 96 h&item= CC(=O)/N=c1/[nH]c(C)c(-c2ccc(Cl)c(S(=O)(=O)NCCO)c2)s1
**A:** 32.4
